The compounds listed here are annotated with their Ratio.
target: Serotonin 1a (5-HT1a) receptor/Adrenergic receptor alpha-1 (Rattus norvegicus) (UniProt P15823+P23944+P43140+P19327); assay: Relative binding affinity for 5-hydroxytryptamine 1A and Alpha-1 adrenergic receptors; format: protein assay
observable: Ratio

INSERT INTO measurements (structure_smiles_string, relation_symbol, numeric_value) VALUES
  ('COc1ccccc1N1CCN(CCn2c(=O)[nH]c3cc(-c4ccccc4Cl)[nH]c3c2=O)CC1', '=', 21),
  ('COc1ccccc1N1CCN(CCn2c(=O)[nH]c3cc(-c4ccccc4)[nH]c3c2=O)CC1', '=', 46),
  ('COc1ccccc1N1CCN(CCCn2c(=O)[nH]c3cc[nH]c3c2=O)CC1', '=', 6.9),
  ('COc1ccccc1N1CCN(CCn2c(=O)[nH]c3cc[nH]c3c2=O)CC1', '=', 282),
  ('COc1ccc(-c2cc3[nH]c(=O)n(CCN4CCN(c5ccccc5Cl)CC4)c(=O)c3[nH]2)cc1', '>', 2500),
  ('O=c1[nH]c2cc(-c3ccccc3Cl)[nH]c2c(=O)n1CCN1CCN(c2ccccc2Cl)CC1', '>', 20000),
  ('O=c1[nH]c2cc(-c3ccc(Cl)cc3)[nH]c2c(=O)n1CCN1CCN(c2ccccc2Cl)CC1', '>', 800),
  ('O=c1[nH]c2c([nH]c3ccccc32)c(=O)n1CCN1CCN(c2ccccc2Cl)CC1', '>', 15000),
  ('Cc1ccc(-c2cc3[nH]c(=O)n(CCCN4CCN(c5ccccc5Cl)CC4)c(=O)c3[nH]2)cc1', '>', 90);

* * *

target: Serotonin 1a (5-HT1a) receptor/Adrenergic receptor alpha-1 (Rattus norvegicus) (UniProt P15823+P23944+P43140+P19327); experiment: Relative binding affinity for 5-hydroxytryptamine 1A and Alpha-1 adrenergic receptors; format: protein assay
The compounds listed here are annotated with their Ratio.
observable: Ratio

INSERT INTO measurements (structure_smiles_string, observable, result) VALUES
  ('Cc1ccc(-c2cc3[nH]c(=O)n(CCN4CCN(c5ccccc5Cl)CC4)c(=O)c3[nH]2)cc1', 'Ratio', '> 500'),
  ('COc1ccccc1N1CCN(CCn2c(=O)[nH]c3cc(-c4ccc(Cl)cc4)[nH]c3c2=O)CC1', 'Ratio', '> 1000'),
  ('COc1ccccc1N1CCN(CCn2c(=O)[nH]c3cc(-c4ccc(C)cc4)[nH]c3c2=O)CC1', 'Ratio', '> 4500');
